# Test system: Mast/stem cell growth factor receptor Kit (Homo sapiens), P10721 [V560G]
# Sequence (P10721 whole entry V560G): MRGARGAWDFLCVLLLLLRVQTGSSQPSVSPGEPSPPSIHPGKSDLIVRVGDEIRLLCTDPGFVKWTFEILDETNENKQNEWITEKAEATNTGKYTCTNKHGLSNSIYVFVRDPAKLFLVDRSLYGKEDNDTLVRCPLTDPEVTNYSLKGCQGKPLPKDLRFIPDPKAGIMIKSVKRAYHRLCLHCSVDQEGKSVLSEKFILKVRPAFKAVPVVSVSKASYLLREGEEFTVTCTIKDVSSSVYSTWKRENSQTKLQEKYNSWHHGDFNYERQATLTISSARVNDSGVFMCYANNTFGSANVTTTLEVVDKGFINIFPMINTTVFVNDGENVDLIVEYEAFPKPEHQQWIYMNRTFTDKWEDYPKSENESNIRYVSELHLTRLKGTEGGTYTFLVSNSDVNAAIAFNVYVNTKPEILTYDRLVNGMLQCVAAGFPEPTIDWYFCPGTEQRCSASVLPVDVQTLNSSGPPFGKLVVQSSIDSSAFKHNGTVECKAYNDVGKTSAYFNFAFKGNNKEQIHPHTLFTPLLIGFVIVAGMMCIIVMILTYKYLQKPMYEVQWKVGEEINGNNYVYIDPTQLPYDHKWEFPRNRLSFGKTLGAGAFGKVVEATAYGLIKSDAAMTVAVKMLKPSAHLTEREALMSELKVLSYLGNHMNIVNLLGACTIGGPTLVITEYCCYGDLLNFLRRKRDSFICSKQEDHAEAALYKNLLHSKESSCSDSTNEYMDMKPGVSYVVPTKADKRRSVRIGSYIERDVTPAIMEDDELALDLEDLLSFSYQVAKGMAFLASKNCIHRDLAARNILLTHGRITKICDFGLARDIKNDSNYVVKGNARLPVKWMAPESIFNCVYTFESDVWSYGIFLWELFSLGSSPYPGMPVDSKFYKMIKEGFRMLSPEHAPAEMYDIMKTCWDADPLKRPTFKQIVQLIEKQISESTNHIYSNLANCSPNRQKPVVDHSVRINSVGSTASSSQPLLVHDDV
# condition: at 0.1 µM
recorded_endpoint: inhibition (%)
Value expressed in %; do not type the unit.

A selection of reference data follows.
1. Fc1ccc(-c2ncn(CCCN3CCOCC3)c2-c2ccncc2)cc1	2.57
2. CCN(CC)Cc1ccc(Nc2nccc(-c3cnn4ncccc34)n2)cc1	8.63
3. c1ccc(Oc2ccc(Nc3ncc(-c4ccccc4)o3)cc2)cc1	-0.1

Prompt: Provide one value: measured inhibition of `COc1ccc(-c2ccc3c(NC(=O)C4CC4)n[nH]c3n2)cc1`
Response: 4.61

Prompt: Provide one value: measured inhibition of `O=C1Nc2ccc(I)cc2C1=Cc1cc(Br)c(O)c(Br)c1`
Response: -4.29

Prompt: Provide one value: measured inhibition of `CCc1nccc2c1nc(-c1nonc1N)n2CC`
Response: 3.98

Prompt: Provide one value: measured inhibition of `C/C(Nc1ccc(S(N)(=O)=O)cc1)=C1/C(=O)Nc2ccccc21`
Response: 3.94

Prompt: Provide one value: measured inhibition of `NS(=O)(=O)c1ccc(Nc2cc(-c3ccc(O)c(F)c3)n[nH]2)cc1`
Response: 8.78

Prompt: Provide one value: measured inhibition of `COc1cc2ncn(-c3cc(OCc4cccs4)c(C(N)=O)s3)c2cc1OC`
Response: 1.25

Origin of measurements: ChEMBL document CHEMBL1961873
